These data points were gathered from patent US9238039B2.

- Test system: RSV strain A2
- method-description: RSV antiviral cytoprotection assay in Hep2 cells (96-well and 384-well format, Cell TiterGlo read-out)
- Type: cell-based, Respiratory Syncytial Virus (RSV)
- test-parameters: human respiratory syncytial virus, HEp-2, 0.5 uM; RSV-induced cytopathic effect in Hep2 cells; calculated from fitted dose response curve, normalized to 0% and 100%
test-readout: inhibition at 0.5 µM (%)
Report the value in % with no unit label.

Take a look at these entries with their results.
Prompt: Look at this compound and give its reported inhibition at 0.5 µM. COc1ccc(C(=O)N2CCCC[C@H]2c2cc3nc(N4CC[C@H](N)C4)c(C)cn3n2)c(C)c1
Response: 100

Prompt: Look at this compound and give its reported inhibition at 0.5 µM. CCn1cc(C(=O)N2CCCC[C@H]2c2cc3nc(N4CC[C@H](N)C4)c(C)cn3n2)cn1
Response: 37

Prompt: Look at this compound and give its reported inhibition at 0.5 µM. Cc1cn2nc([C@@H]3CCCCN3C(=O)c3cc(-c4ccco4)n[nH]3)cc2nc1N1CC[C@H](N)C1
Response: 66

Prompt: Look at this compound and give its reported inhibition at 0.5 µM. Cc1cn2nc([C@@H]3CCCCN3C(=O)c3sccc3Cl)cc2nc1N1CC[C@H](N)C1
Response: 100

Prompt: Look at this compound and give its reported inhibition at 0.5 µM. Cc1cn2nc([C@@H]3CCCCN3C(=O)c3c(Cl)c(C)nn3C)cc2nc1N1CC[C@H](N)C1
Response: 99

Now turn to the next compound.
Prompt: Look at this compound and give its reported inhibition at 0.5 µM. Cc1cc(C(=O)N2CCCC[C@H]2c2cc3nc(N4CC[C@H](N)C4)c(C)cn3n2)[nH]n1
Response: 100
